molecular target: BTK (Homo sapiens (Human), UniProt Q06187); experiment: BTK kinase test (33P-ATP filter binding); type: biochemical; details: Table 2 comparison; final ATP 5 μM
Sequence (Q06187 whole entry): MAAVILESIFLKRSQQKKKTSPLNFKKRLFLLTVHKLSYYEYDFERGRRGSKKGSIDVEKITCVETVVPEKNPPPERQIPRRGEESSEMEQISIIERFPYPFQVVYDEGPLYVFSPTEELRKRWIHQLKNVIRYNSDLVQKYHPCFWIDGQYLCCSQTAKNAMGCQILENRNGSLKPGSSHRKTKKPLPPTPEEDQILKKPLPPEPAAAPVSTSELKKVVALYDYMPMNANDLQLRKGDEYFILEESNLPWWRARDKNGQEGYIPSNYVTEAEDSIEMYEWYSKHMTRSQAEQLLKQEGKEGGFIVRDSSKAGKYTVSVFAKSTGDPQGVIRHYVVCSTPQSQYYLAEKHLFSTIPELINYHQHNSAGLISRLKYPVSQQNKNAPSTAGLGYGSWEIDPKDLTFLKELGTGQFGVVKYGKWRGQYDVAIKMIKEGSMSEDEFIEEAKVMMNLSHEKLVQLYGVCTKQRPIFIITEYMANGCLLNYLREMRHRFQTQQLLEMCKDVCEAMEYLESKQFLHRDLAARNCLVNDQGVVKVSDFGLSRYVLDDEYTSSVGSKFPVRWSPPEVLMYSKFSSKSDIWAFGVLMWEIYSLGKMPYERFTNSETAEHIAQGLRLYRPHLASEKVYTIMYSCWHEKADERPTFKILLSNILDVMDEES
RECORDED ENDPOINT: IC50 (nM)
Numbers only, in nM.

| MOLECULE | TESTED SYSTEM | RECORDED ENDPOINT | VALUE MEASURED |
| --- | --- | --- | --- |
| C=CC(=O)N1CCC[C@@H](c2nn(-c3ccc(Oc4cc(F)ccc4F)cc3)c3cncc(F)c23)C1 [Compound 6A] | BTK (Homo sapiens (Human), UniProt Q06187) | IC50 | 9.58 |

Pending molecule:
Ask | Report IC50 for C=CC(=O)N1CCC[C@@H](c2nn(-c3ccc(Oc4cc(F)cc(F)c4F)cc3)c3cncc(F)c23)C1 (single isomer, unassigned) [Compound 4A] please.
Reply | 11

This collection of values is drawn from patent US11739090B2.
